- experiment notes: growth inhibitors of H69AR lung tumor, primary screen, human, duplicate replicates (AID 580);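 further: 100% = mean luminescence of untreated wells and 0% = no signal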
- experimental parameters: H69AR lung tumor cells viability, ATP luminescence, 72 h; at 10 µM; hits give low values
Field: viability. Provide a value for each of the molecules that follow.
Give the value in % but do not write % after it.

Query: Look up viability for this molecule: `CCOC(=O)c1c(C)[nH]c(C=Nc2ccccc2)c1O`
Reply: 101

Query: Look up viability for this molecule: `COc1ccc(CC(=O)Nc2ccc(-c3nnc(-c4ccc(C)cc4)o3)cc2)cc1`
Reply: 4.72

Query: Look up viability for this molecule: `O=C(c1cn(-c2ccccc2)nc1-c1cccs1)N1CCN(c2ccccn2)CC1`
Reply: 45.1

Query: Look up viability for this molecule: `O=C1CCCN1CCCNc1ncnc2c1[nH]c1ccc(Cl)cc12`
Reply: 80.9

Query: Look up viability for this molecule: Cc1cc(N2C(=O)C3C4C=CC(C4)C3C2=O)ccc1Br (stereo unspecified)
Reply: 101

Query: Look up viability for this molecule: `CCCCN(CCCC)C(=O)CN(C)S(=O)(=O)c1ccc2c(c1)n(C)c(=O)c(=O)n2C`
Reply: 96.1

Query: Look up viability for this molecule: C[C@H](NC(=O)OC(C)(C)C)C(=O)NCC1CCC(C(=O)O)CC1 (stereo partly specified)
Reply: 108

Query: Look up viability for this molecule: `CC(C)(C)Nc1nc(NC(C)(C)C)nc(-n2ccnc2)n1`
Reply: 88.6

Query: Look up viability for this molecule: O=C(CSc1nnc(Cc2cc(=O)[nH]c(=O)[nH]2)n1-c1ccccc1)NCC1CCCO1 (stereo unspecified)
Reply: 98.4

Query: Look up viability for this molecule: `O=c1c2ccccc2nnn1CSc1nnc2sc3ccccc3n12`
Reply: 77.5

Query: Look up viability for this molecule: `O=S(=O)(NC1CCCC1)c1ccccc1Cl`
Reply: 101

Query: Look up viability for this molecule: `O=C(NCc1ccccc1)c1ccc(OC2CSC2)cc1`
Reply: 112

Query: Look up viability for this molecule: `Cc1cc(NC(=O)Cc2cn3ccsc3n2)n(-c2ccccc2)n1`
Reply: 94.9

Query: Look up viability for this molecule: `O=C(c1cccs1)N1CCN=C1SCc1ccccc1`
Reply: 90.4

Query: Look up viability for this molecule: `O=C1CCc2cc(S(=O)(=O)N3CCC(C(=O)Nc4nccs4)CC3)ccc2N1`
Reply: 85.3

Query: Look up viability for this molecule: `CCCOC(=O)CSc1nc(N)c(C#N)c(CC)c1C#N`
Reply: 94.6

---

- experiment notes: viability gain of MRP-1-high H69AR cells under doxorubicin, pilot screen, MRP-1 activator project, CellTiter-Glo, duplicate (AID 807);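 further: compound pretreatment 18-22 h then 72 h combined with doxorubicin; 0% = doxorubicin alone and 100% = vehicle without doxorubicin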
- experimental parameters: H69AR viability with doxorubicin, CellTiter-Glo luminescence; at 10 µM; hits give high values
Field: viability increase. Provide a value for each of the compounds that follow.
Give the value in % but do not write % after it.

Query: Look up viability increase for this compound: `COc1cccc(OCCCCSc2ncccn2)c1`
Reply: -2.94

Query: Look up viability increase for this compound: `CNC(=O)c1c[nH]n2c(=O)c(Cc3ccccc3F)c(C)nc12`
Reply: -0.89

Query: Look up viability increase for this compound: `CC(C)Sc1nc(SCC(=O)NCc2ccco2)c2c3c(sc2n1)COC(C)(C)C3`
Reply: -3.75

Query: Look up viability increase for this compound: `CCc1cccc(Nc2cc(C)nc3ncnn23)c1`
Reply: -0.66

Query: Look up viability increase for this compound: Cc1c(C(=O)NCC2CCCO2)oc2ccc(S(=O)(=O)N3CC(C)CC(C)C3)cc12 (stereo unspecified)
Reply: -4.71

Query: Look up viability increase for this compound: `Cc1oc(-c2ccc(Cl)cc2)nc1CN1CCC(C(=O)N2CCc3ccccc3C2)CC1`
Reply: -8.22

Query: Look up viability increase for this compound: `CN(C(=O)c1ccc(NC(=O)c2cnccn2)cc1)C1CCCCC1`
Reply: -1.47

Query: Look up viability increase for this compound: `CN(C)c1ccnc2sc(C(=O)NCc3ccccc3)c(N)c12`
Reply: -2.17

Query: Look up viability increase for this compound: `O=c1[nH]c(SCc2ccccc2Cl)nc2c1CCC2`
Reply: -2.17

Query: Look up viability increase for this compound: `O=C(NCc1ccc(N2CCCC2=O)cc1)c1cn(CCc2ccccc2)nn1`
Reply: 1.6

Query: Look up viability increase for this compound: Cc1c(NS(=O)(=O)CC23CCC(CC2=O)C3(C)C)c(=O)n(-c2ccccc2)n1C (stereo unspecified)
Reply: -2.6
